endpoint: logP

(Q) logP for C[C@]12CC[C@H](O)C[C@H]1CC[C@@H]1[C@@H]2CC[C@]2(C)[C@@H](c3ccc(=O)oc3)CC[C@]12O ?
(A) 3.34

* * *

assayProtocol: method code SF-AS, from DOI: 10.1002/jps.2600690614, PMID: 7205578
Kindly state logP for each of the entries shown.

(Q) Can you look up the measured logP of CN(C)CCN(Cc1cccs1)c1ccccn1 for me?
(A) 2.87

(Q) Which logP is reported for this molecule? S=C1NCCCN1
(A) -0.68

(Q) # input molecule: CCN1CCN(CC)C1=S ; wanted: its logP
(A) 1.13

* * *

assayProtocol: method code SF-HPLC, from DOI: 10.1016/j.ejps.2006.07.007, PMID: 16997537
conditionSummary: pH 7.4
endpoint: logD

(Q) Would you kindly share the measured logD for CCOC(=O)C1OC(Oc2cc3oc(-c4ccc(O)cc4)cc(=O)c3c(O)c2O)C(O)C(O)C1O (stereo unspecified) ?
(A) 2.37

* * *

endpoint: logP
# respond with the number and nothing more

(Q) # get_value(readout='logP', item= COc1nc(C)ncc1OCC1(c2cccc(F)c2)CC1C(=O)Nc1ccc(F)cn1 (centres undefined) )
(A) 3.65

(Q) Which measured logP value corresponds to COc1ccccc1C(=O)N1CCCN(c2nc3ccc(Cl)cc3s2)CC1 ?
(A) 4.98

(Q) So what's the measured logP for this one? Cn1c(CCC(=O)N2CCC[C@H]2C(=O)Nc2ccccc2-c2ccccc2)nc2ccccc21
(A) 3.79

(Q) Look up logP for this compound: COc1ccc(CNC(=O)c2cc(-c3cncc(Cl)c3)cnc2-c2ccccn2)nc1OC
(A) 3.2

* * *

assayProtocol: method code SF, from DOI: 10.1016/0378-5173(85)90077-8
endpoint: logP
Please reply with the number alone, leaving off any unit.

(Q) So what does the record say about logP for CCCCCCCC(=O)OCC(=O)[C@@]1(O)CC[C@H]2[C@@H]3CCC4=CC(=O)CC[C@]4(C)[C@H]3C(=O)C[C@@]21C ?
(A) 4.22

* * *

endpoint: logP
Just the number, please.

(Q) Entry under review: O=C(Oc1ccccc1)c1ccccc1 . Reported logP?
(A) 3.5

* * *

assayProtocol: method code SF-AS, from DOI: 10.1016/s0021-9673(00)82600-x
endpoint: logP
Reply: number alone, nothing else.

(Q) Name the recorded logP for CN(C)c1cnn(-c2ccccc2)c(=O)c1Cl .
(A) 1.55

(Q) // query logP value for entry COc1cnn(-c2ccccc2)c(=O)c1Br
(A) 1.42

* * *

assayProtocol: method code SF, from DOI: 10.1016/0006-291x(88)90214-8
conditionSummary: pH 7.4
endpoint: logD
Respond using a number only.

(Q) Fill blank: measured logD of the compound Cc1cn([C@H]2CC[C@@H](CO)O2)c(=O)[nH]c1=O is ____.
(A) -0.7

* * *

endpoint: logP
Give the figure only, with no unit attached.

(Q) Name the recorded logP for Oc1c(Cl)c(Cl)c(Cl)c(Cl)c1Cl .
(A) 4.79

* * *

assayProtocol: method code SF-RC, from PMID: 7826467
endpoint: logP
Answer using only a numeral; do not append any unit.

(Q) Record request: logP value, item COc1ccc2c(C)cc(=O)n3c(C)cc1c23
(A) 2.84

* * *

assayProtocol: method code SF-GR, from DOI: 10.1021/jm00219a024, PMID: 926124
endpoint: logP
// return just the number, without any unit appended

(Q) Look up logP: CCCNC(=O)NO
(A) -0.22

* * *

assayProtocol: method code SF-AS, from PMID: 578762
conditionSummary: pH 5.9
endpoint: logD

(Q) Item CCOC(=O)C=C1NC(=O)C(N2CCCCC2)S1 (stereo in doubt) has what recorded logD?
(A) 2.3

* * *

assayProtocol: method code SF-AS, from Galdino, S.; Pitta, I.; Luc-Duc, C. (1986). 5-Benzylidene pyrrolones, furanones and thiopenones. II. Quantitative structure-antifungal correlation. Farmaco [Sci], 41(1)59-68.
endpoint: logP
# print the numeric value only

(Q) Which value of logP has been reported for CCOC(=O)C1=C(C)O/C(=C\c2ccc(OC)cc2)C1=O in the records?
(A) 2.96

* * *

assayProtocol: method code SF, from PMID: 8999431
conditionSummary: pH 7.4
endpoint: logD

(Q) Entry under review: CCn1cc(C(=O)NC(C(=O)OC)C(C)C)c(=O)c2ccc(C)nc21 (configuration not stated) . Reported logD?
(A) 3.61

(Q) // query logD value for entry CCC(C)C(NC(=O)c1cn(CC)c2nc(C)ccc2c1=O)C(=O)OC (configuration not stated)
(A) 2.64

* * *

endpoint: logP
Reply: number alone, nothing else.

(Q) State the recorded logP for this entry: O=C(O)Cc1ccc2c(c1O)C(=O)c1c(O)cccc1C2
(A) 3.1

* * *

assayProtocol: method code SF, from DOI: 10.1021/jm061062o.s001, PMID: 17326614
conditionSummary: pH 7.4
endpoint: logD

(Q) Using the record for CS(=O)(=O)CCN(CCBr)c1cc(C(=O)NCC(O)CO)c([N+](=O)[O-])cc1[N+](=O)[O-] (stereo unspecified) , report its logD.
(A) -0.05

* * *

conditionSummary: pH 1.0
endpoint: logD
// response body must contain only the number

(Q) Fill in: logD of O=C(O)Cc1c(Cl)ccc(Cl)c1Cl is ___
(A) 3.2

* * *

Task for the reader: assign each of the following compounds its reported logP.
assayProtocol: from Ganellin, C.; Brown, T.; Griffiths, R.; Jones, M.; Mitchell, C.; Rana, K.; Saunders, D.; Smith, I.; Sore, E.; Wilks, J.; Young, R. (1991). Use of partition coefficients as a model for brain …
No unit in the answer, please; the number alone is enough.

(Q) Which logP value belongs to CN(C)Cc1ccc(CSCCNc2nc(=O)c(Cc3ccc4ccccc4c3)c[nH]2)o1 ?
(A) 4.57

(Q) Please report the recorded logP for c1cc(CN2CCCCC2)cc(OCCCNc2nc3ccccc3s2)c1 .
(A) 5.41

(Q) What logP value was documented for this compound, COc1cccnc1CCCCNc1nc(=O)c(Cc2ccc(C)nc2)c[nH]1 ?
(A) 2.58

* * *

Provide the reported logD of each item.
assayProtocol: method code SF-HPLC, from DOI: 10.1016/0378-5173(91)90200-8
conditionSummary: pH 7.4
Provide a numeric answer; units are not to be included.

(Q) Record request: logD value, item CCC(C(=O)OCc1ccc(COC(=O)C(CC)C(COC(C)=O)Cc2cncn2C)cc1)C(COC(C)=O)Cc1cncn1C (stereo not drawn)
(A) 3.04

(Q) Could you share which logD value was measured for CCC(C(=O)OCc1ccc(COC(=O)C(CC)C(COC(=O)CC(=O)OC)Cc2cncn2C)cc1)C(COC(=O)CC(=O)OC)Cc1cncn1C (stereo not drawn) ?
(A) 2.76

(Q) What measured logD goes with CCOC(=O)CC(Cc1cncn1C)C(CC)C(=O)OCc1ccc(COC(=O)C(CC)C(CC(=O)OCC)Cc2cncn2C)cc1 (stereo not drawn) ?
(A) 4.08

* * *

endpoint: logP
Give your answer as a number; write no unit.

(Q) What logP value was documented for this compound, O=[N+]([O-])/C=C1\NCCCS1 ?
(A) -0.4

* * *

assayProtocol: method code SF-AS, from DOI: 10.1111/j.2042-7158.1984.tb04385.x, PMID: 6145771
conditionSummary: pH 9.2
endpoint: logD

(Q) // logD lookup, key: CNC(=S)NCCSCc1cncn1C
(A) 0.32

* * *

assayProtocol: method code SF-RC, from DOI: 10.1023/a:1015892313856, PMID: 1495896
conditionSummary: pH 2.0
Peptide text beside a SMILES is read from it. * marks the point of attachment. NHtBu = CC(C)(C)N*
endpoint: logD
# print the numeric value only

(Q) # query: logD of entry CC(=O)NC(C)C(=O)NC(CC(=O)O)C(=O)NC(C)(C)C (stereo not drawn) (Ac-Ala-Asp-NHtBu; configuration not given here)
(A) -0.74

(Q) Which logD value is on record for CC(=O)NC(C)C(=O)NC(CCC(N)=O)C(=O)NC(C)C(=O)NC(C)(C)C (stereo not drawn) (Ac-Ala-Gln-Ala-NHtBu; configuration not given here) ?
(A) -0.67

* * *

assayProtocol: method code SF-AS, from DOI: 10.1016/s0021-9673(01)89384-5
Provide the recorded logP for the entries that follow.

(Q) Query: logP; subject: Cc1ccc(C)o1
(A) 2.24

(Q) Any idea what logP was measured for c1ccc(-c2nccnn2)cc1 ?
(A) 1.71

* * *

Exercise: for every item that follows, state its recorded logP.
Respond using a number only.

(Q) Which logP is listed for CCC1(c2ccccc2)C(=O)NC(=O)N(C(C)C)C1=O (configuration not stated) ?
(A) 2.58

(Q) What does the record list as logP for CCC1(CC)C(=O)NC(=O)N=C1OC(C)C ?
(A) 1.86

* * *

endpoint: logP
Give the value as a plain number.

(Q) What value of logP has been reported for the following compound? Clc1ccc(Cl)cc1
(A) 3.48
